biological target: BRD4 (Homo sapiens, UniProt O60885); assay: Differential Scanning Fluorimetry (DSF), stability of BRD4 upon ligand binding; conditions: 100 μM protein, 4 μM compound and 2% DMSO
Record y whenever ΔTm at 4 µM is at 9 °C or higher; record n when lower.

The examples below pair each entry with its known result.
>>> classification("Cc1cnc(Nc2ccc(N3CCN(C)CC3)cc2)nc1Nc1cccc(OC(C)C)c1")
"n"
>>> classification("CCc1cnc(Nc2ccc(N3CCN(C)CC3)cc2)nc1Nc1cccc(S(=O)(=O)NC(C)(C)C)c1")
"n"

Evaluate Cc1cnc(Nc2ccc(N3CCN(C)CC3)c(F)c2)nc1Nc1ccc2c(c1)N(S(=O)(=O)C(C)(C)C)CCC2 : ΔTm at 4 µM at minimum 9 °C?
y

Evaluate Cc1cnc(Nc2ccc(N3CCN(C)CC3)c(C(F)(F)F)c2)nc1Nc1cccc(NS(=O)(=O)C(C)(C)C)c1 : ΔTm at 4 µM at minimum 9 °C?
n

Evaluate COc1cc(Nc2nc(Nc3ccc(N4CCN(C)CC4)cc3)ncc2C(=O)O)ccc1Cl : ΔTm at 4 µM at minimum 9 °C?
n

Evaluate Cc1cnc(Nc2ccc(C3CCN(C)CC3)cc2)nc1Nc1cccc(NS(=O)(=O)C(C)(C)C)c1 : ΔTm at 4 µM at minimum 9 °C?
n
